Target: T1, O5-bS
T1 chain: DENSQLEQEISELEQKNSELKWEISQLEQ
Assay: two-hybrid library CCNG1;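 note: natural log of median RNA to DNA barcode read ratio; higher means stronger binding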
measured.parameter: interaction score

Illustrative cases are given below, each with its answer.
binder	interaction score
DENSQLEQEISELEQKNSELKWEISQLEQ [O5-bS]	-1.98
DEISQLEQKISELKQENSELEWENSQLEQ [O3-bS]	0.221
DKNSQLKQENSELEQEISELEWEISQLEQ [O1-bS]	-2

Q: Can you look up the measured interaction score of DENSQLEQEISELEQENSELEWKISQLKQ [O14-bS] for me?
Result: -0.394

Q: Can you look up the measured interaction score of DEISQLEQENSELEQKISELKWENSQLEQ [O15-bS] for me?
Result: -1.13

Q: Can you look up the measured interaction score of DKISQLKQEISELEQKNSELKWKNSQLKQ [O4-bS] for me?
Result: -0.823
